Source listed as paper PMC12480751.

target: CHIKV nsP2pro (Chikungunya virus); assay: FRET-based nsP2pro proteolytic assay with peptide 3 (nsp2/3 site); format: biochemical; settings: nsP2pro and peptide 3; read-out: IC50, inhibition of cleavage of nsp2/3 peptide by nsp2pro
Quantity Measured: pIC50
Answers are plain numbers, as −log10 of the molar value.

Query :: I am curious: what pIC50 value has been reported for CC(=O)[O-].CC(=O)[O-].[Zn+2] [ZnAc, Zinc acetate] ?
Result :: 6.16

###

Target: full-length nsP2 (Chikungunya virus, UniProt Q8JUX6, C1333A)
Sequence (Q8JUX6 536-1333 C1333A): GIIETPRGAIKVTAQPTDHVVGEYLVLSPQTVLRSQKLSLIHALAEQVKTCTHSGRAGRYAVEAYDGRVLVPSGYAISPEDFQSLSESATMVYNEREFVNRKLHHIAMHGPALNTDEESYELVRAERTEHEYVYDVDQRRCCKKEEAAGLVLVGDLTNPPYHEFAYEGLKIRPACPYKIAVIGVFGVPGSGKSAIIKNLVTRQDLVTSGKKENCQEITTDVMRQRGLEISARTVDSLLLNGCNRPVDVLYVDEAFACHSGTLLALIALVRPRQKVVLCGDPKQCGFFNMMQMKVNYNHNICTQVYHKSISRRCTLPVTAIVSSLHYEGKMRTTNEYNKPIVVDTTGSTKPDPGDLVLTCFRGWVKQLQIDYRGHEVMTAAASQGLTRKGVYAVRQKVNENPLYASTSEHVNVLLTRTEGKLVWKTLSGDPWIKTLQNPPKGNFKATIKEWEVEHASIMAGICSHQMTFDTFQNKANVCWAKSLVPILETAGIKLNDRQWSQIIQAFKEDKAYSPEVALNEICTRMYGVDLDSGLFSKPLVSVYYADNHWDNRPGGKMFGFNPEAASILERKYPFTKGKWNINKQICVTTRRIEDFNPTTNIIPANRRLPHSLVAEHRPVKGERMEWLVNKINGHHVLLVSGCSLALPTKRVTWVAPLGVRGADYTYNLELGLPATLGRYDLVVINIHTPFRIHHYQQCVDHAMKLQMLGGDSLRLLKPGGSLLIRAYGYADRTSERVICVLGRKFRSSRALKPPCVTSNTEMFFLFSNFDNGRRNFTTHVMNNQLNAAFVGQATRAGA
Test: FRET-based full-length nsP2 proteolytic assay with peptide 2
Conditions: full-length nsP2 and peptide 2; read-out: IC50, inhibition of nsp3/4 cleavage by full-length enzyme
Quantity Measured: IC50 (nM)
Answers are plain numbers, in nM.

Query :: I am curious: what IC50 value has been reported for CC(=O)[O-].CC(=O)[O-].[Zn+2] [ZnAc, Zinc acetate] ?
Result :: 137
